experiment: Cytotoxicity against human HepG2 cells assessed as cell growth inhibition incubated for 1 day by neutral red assay; format: toxicity, cell-based
Consider the following compounds; for each one, report its IC50 at 1 day.

IC50 at 1 day for "COc1ccc2c3ccnc(C)c3n(Cc3cn(-c4ccnc5cc(Cl)ccc45)nn3)c2c1" is 19.7 µM

IC50 at 1 day for "COc1ccc2c3ccnc(C)c3n(CCC(=O)NCCNc3ccnc4cc(Cl)ccc34)c2c1" is 12.8 µM

IC50 at 1 day for "O=C(CNc1ccnc2cc(Cl)ccc12)NCc1nccc2c1[nH]c1ccccc12" is 7.8 µM

IC50 at 1 day for "Cc1nccc2c1[nH]c1cc(OCCNC(=O)CNc3ccnc4cc(Cl)ccc34)ccc12" is 15.9 µM

IC50 at 1 day for "Cc1nccc2c1[nH]c1cc(OCc3cn(-c4ccnc5cc(Cl)ccc45)nn3)ccc12" is 6.4 µM

IC50 at 1 day for "Clc1ccc2c(OCc3cn(Cc4nccc5c4[nH]c4ccccc45)nn3)ccnc2c1" is > 25 µM

IC50 at 1 day for "COc1ccc2c3ccnc(C)c3n(CCC(=O)NCCCCNc3ccnc4cc(Cl)ccc34)c2c1" is > 25 µM

IC50 at 1 day for "Cc1nccc2c1[nH]c1cc(OCc3cn(CCNc4ccnc5cc(Cl)ccc45)nn3)ccc12" is 6.3 µM

IC50 at 1 day for "Cc1nccc2c1[nH]c1ccc(OCc3cn(CCNc4ccnc5cc(Cl)ccc45)nn3)cc12" is 15 µM

----------
Consider the following compounds; for each one, report its inhibition.
assay: Inhibition of hemin (unknown origin) assessed as inhibition of heme polymerization by measuring reduction in beta-hematin formation at 1 mM measured after 48 hrs by microplate reader assay

inhibition for "COc1ccc2c3ccnc(C)c3n(CCNC(=O)CNc3ccnc4cc(Cl)ccc34)c2c1" is 50%

inhibition for "O=C(CNc1ccnc2cc(Cl)ccc12)NCc1nccc2c1[nH]c1ccccc12" is < 50%

inhibition for "COc1ccc2c3ccnc(C)c3n(CCC(=O)NCCNc3ccnc4cc(Cl)ccc34)c2c1" is < 50%

inhibition for "COc1ccc2c3ccnc(C)c3n(CCC(=O)NCCCCNc3ccnc4cc(Cl)ccc34)c2c1" is < 50%

inhibition for CCN(CC)CCCC(C)Nc1ccnc2cc(Cl)ccc12 (stereo unspecified) is > 75%

inhibition for "Cc1nc(CNC(=O)CNc2ccnc3cc(Cl)ccc23)cc2c1[nH]c1ccccc12" is < 50%

inhibition for "Clc1ccc2c(OCc3cn(Cc4nccc5c4[nH]c4ccccc45)nn3)ccnc2c1" is < 50%

inhibition for "Cc1nc(Cn2cc(COc3ccnc4cc(Cl)ccc34)nn2)cc2c1[nH]c1ccccc12" is 50%

inhibition for "COc1ccc2c3ccnc(C)c3n(Cc3cn(CCNc4ccnc5cc(Cl)ccc45)nn3)c2c1" is 50%

inhibition for "COc1ccc2c3ccnc(C)c3n(Cc3cn(-c4ccnc5cc(Cl)ccc45)nn3)c2c1" is < 50%

inhibition for "Cc1nccc2c1[nH]c1ccc(OCCNC(=O)CNc3ccnc4cc(Cl)ccc34)cc12" is < 50%

----------
test: Selectivity index, ratio of IC50 for cytotoxicity against human HepG2 cells to IC50 for antiplasmodial activity against chloroquine-sensitive Plasmodium falciparum 3D7; type: toxicity, cell-based; details: read-out: Ratio IC50
Categories are assigned from the measured selectivity ratio using these intervals: bottom bin: < 70; middle bin: ≥ 70 and < 800; top bin: ≥ 800

Q) Lab note: which band did "Cc1nccc2c1[nH]c1ccc(OCc3cn(CCNc4ccnc5cc(Cl)ccc45)nn3)cc12" land in?
A) middle bin

Q) Lab note: which band did "Cc1nccc2c1[nH]c1cc(OCc3cn(CCNc4ccnc5cc(Cl)ccc45)nn3)ccc12" land in?
A) middle bin

Q) Lab note: which band did "COc1ccc2c3ccnc(C)c3n(Cc3cn(CCNc4ccnc5cc(Cl)ccc45)nn3)c2c1" land in?
A) top bin

Q) Lab note: which band did "Cc1nccc2c1[nH]c1cc(OCc3cn(-c4ccnc5cc(Cl)ccc45)nn3)ccc12" land in?
A) bottom bin

Q) Lab note: which band did "O=C(CNc1ccnc2cc(Cl)ccc12)NCc1nccc2c1[nH]c1ccccc12" land in?
A) middle bin

Q) Lab note: which band did "Cc1nccc2c1[nH]c1ccc(OCc3cn(-c4ccnc5cc(Cl)ccc45)nn3)cc12" land in?
A) bottom bin

Q) Lab note: which band did "Cc1nc(CNC(=O)CNc2ccnc3cc(Cl)ccc23)cc2c1[nH]c1ccccc12" land in?
A) top bin

Q) Lab note: which band did "COc1ccc2c3ccnc(C)c3n(Cc3cn(-c4ccnc5cc(Cl)ccc45)nn3)c2c1" land in?
A) bottom bin

Q) Lab note: which band did "COc1ccc2c3ccnc(C)c3n(CCNC(=O)CNc3ccnc4cc(Cl)ccc34)c2c1" land in?
A) top bin
